- TARGET_DESC: UniProtKB P0AES6
OBSERVED_PROPERTY: Ki

Incoming: Entry under review: CCOC(=O)c1cc(-c2sc(-c3cccnc3)nc2CN2CCNCC2)n[nH]1 . Reported Ki?
Outgoing: 500 to 1500 nM
